Value source: ChEMBL document CHEMBL1123357

- System: ATH-8 cell line
- ASSAY_NOTES: Selectivity index expressed as ratio of compound concentration required to reduce the growth of normal uninfected ATH8 cells by 50% to the compound concentration (MIC)
- Type: functional, Homo sapiens
MEASURED_METRIC: SI

- MOLECULE_SMILES: "Cc1cc(-c2ccc(/N=N/c3ccc4c(S(=O)(=O)[O-])cc(S(=O)(=O)[O-])c(N)c4c3O)c(C)c2)ccc1/N=N/c1ccc2c(S(=O)(=O)[O-])cc(S(=O)(=O)[O-])c(N)c2c1O.[Na+].[Na+].[Na+].[Na+]"
  TARGET_OR_SYSTEM: "ATH-8 cell line"
  RESULT: ">4"
- MOLECULE_SMILES: "Nc1ccn([C@H]2CC[C@@H](CO)O2)c(=O)n1"
  TARGET_OR_SYSTEM: "ATH-8 cell line"
  RESULT: 50
- MOLECULE_SMILES: "O=C(O)P(=O)(O)O"
  TARGET_OR_SYSTEM: "ATH-8 cell line"
  RESULT: ">1"

Please examine the following record next.
Endpoint output: SI of `O=C(O)C1=CC(=C(c2ccc(O)c(C(=O)O)c2)c2ccc(O)c(C(=O)O)c2)C=CC1=O` . Value?
>2.5
